target: PKA-R (bovine RIα 92-260; bRIα 92–260) (Bos taurus); construct: gene PRKAR1A; expressed in E. coli BL21 (DE3) RIL; experiment: biochemical; set-up: Focal molography, immobilised cAMP analogue, PKA-R as analyte; KD at 293 K from van't Hoff fit; settings: 50% human serum, 293 K, van't Hoff fit; read-out: KD [nM] Focal Mol. (Serum)
Sequence (P00514 93-261): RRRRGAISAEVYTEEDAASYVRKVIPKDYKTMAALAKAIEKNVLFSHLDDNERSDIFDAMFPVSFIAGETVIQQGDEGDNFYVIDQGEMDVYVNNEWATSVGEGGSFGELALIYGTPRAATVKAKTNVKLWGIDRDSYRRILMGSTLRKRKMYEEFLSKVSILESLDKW
assayReadout: Kd (nM)

NCCCCCCNc1nc2c(N)ncnc2n1[C@@H]1O[C@@H]2COP(=O)(O)O[C@H]2[C@H]1O 31
NCCCCCCNc1ncnc2c1ncn2[C@@H]1O[C@@H]2COP(=O)(O)O[C@H]2[C@H]1O 36.6

---

target: PKA-R (bovine RIα 92-260; bRIα 92–260) (Bos taurus); construct: gene PRKAR1A; expressed in E. coli BL21 (DE3) RIL; assay: biochemical; design: Focal molography, immobilised cAMP analogue, PKA-R as analyte; KD at 293 K from van't Hoff fit; conditions: buffer, 293 K, van't Hoff fit; read-out: KD [nM] Focal Mol. (Buffer)
assayReadout: Kd (nM)

NCCCCCCNc1nc2c(N)ncnc2n1[C@@H]1O[C@@H]2COP(=O)(O)O[C@H]2[C@H]1O 25.5
NCCCCCCNc1ncnc2c1ncn2[C@@H]1O[C@@H]2COP(=O)(O)O[C@H]2[C@H]1O 29.5

Where do these numbers come from? They come from paper doi:10.1101/2025.10.01.679885v1.
